Origin of measurements: patent US20230295298A1

test-system: T1, human A33 antigen, full length, on cells (human, UniProt Q99795 22-319)
T1 construct: CHO cells transfected with full length A33 cDNA (A33-CHO), or endogenous antigen of LS174T (colon) and AsPC-1 (pancreatic) tumour cells; The cell line is named under assay; also called A33-CHO; A33 antigen on LS174T cells
T1 sequence: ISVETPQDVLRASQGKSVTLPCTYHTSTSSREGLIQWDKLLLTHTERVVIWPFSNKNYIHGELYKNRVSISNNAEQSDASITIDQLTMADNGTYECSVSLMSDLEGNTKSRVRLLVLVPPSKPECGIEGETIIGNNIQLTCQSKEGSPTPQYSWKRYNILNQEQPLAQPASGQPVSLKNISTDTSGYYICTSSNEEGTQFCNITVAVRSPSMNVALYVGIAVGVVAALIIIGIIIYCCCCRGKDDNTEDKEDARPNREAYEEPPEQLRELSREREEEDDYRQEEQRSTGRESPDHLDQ
test-protocol: IHC on LS174T FFPE sections, 20ug/mL, first result
Please respond with reported H-Score of IHC for every item in the list.
One number for each entry, in H-Score.

A selection of reference data follows.
Find the recorded H-Score of IHC belonging to humanized 31.1 antibody #14 (ven-HC + abb-LC) (antibody, human IgG1, kappa, V domains shown, Full heavy and light chains; transient Expi293 expression, tested as culture supernatant; also called Sample ID 14; ven31.1-HC + abb31.1-LC) VH: QIQLVQSGPEVKKPGASVKISCKASGYTFTNYGMNWVKQAPGQGLKWMGWINTYTGEPTYADDFKGRFAFTLDTSISTAYLEISRLRSDDTAVYFCARAYYGKYFDYWGQGTTLTVSS VL: SIQMTQSPSSLSASVGDRVTITCRASQSVSNDVAWYQQKPGQSPKLLIYYASNRYSGVPDRFSGSGYGTDFTLTISSLQPEDFAVYFCQQDYSSPLTFGAGTKLEIKR and report it. 125

Consider the binder shown here: humanized 31.1 antibody #6 (abb31.1-HC + abb31.1-LC) (antibody, human IgG1, kappa, V domains shown, Full heavy and light chains; supernatant in the first screen, Protein A/G purified in the second round; also called Sample ID 6; abb-HC + abb-LC) VH: QIQLVQSGAEVKKPGASVKVSCKASGYTFTNYGMNWVRQAPGKGLEWMGWINTYTGEPTYAQKFQGRVTFTLDTSISTAYMELSRLRSDDTAVYFCARAYYGKYFDYWGQGTTVTVSS VL: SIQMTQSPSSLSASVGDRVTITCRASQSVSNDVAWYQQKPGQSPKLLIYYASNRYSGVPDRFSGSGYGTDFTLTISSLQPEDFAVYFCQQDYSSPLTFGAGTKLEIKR What is its recorded H-Score of IHC? 230

Next up:
I'd like to know its H-Score of IHC. The binder in question is humanized 31.1 antibody #10 (sdr-HC + abb-LC) (antibody, human IgG1, kappa, V domains shown, Full heavy and light chains; transient Expi293 expression, tested as culture supernatant; also called Sample ID 10; sdr31.1-HC + abb31.1-LC) VH: QIQLVQSGAEVKKPGASVKVSCKASGYTFTNYGMNWVRQAPGKGLEWMGWINPYTGEPTYAQKFQGRVTFTLDTSISTAYMELSRLRSDDTAVYFCARAYYGKYFDYWGQGTTVTVSS VL: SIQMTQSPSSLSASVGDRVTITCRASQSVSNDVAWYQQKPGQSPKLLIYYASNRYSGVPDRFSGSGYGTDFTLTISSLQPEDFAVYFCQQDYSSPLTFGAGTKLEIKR 240
